Reference for the values: patent US20180016324A1

Some binders, each annotated with its measured pKd.
target.desc: T1, ZIKV (prM80E) with a C-terminal myc-myc-hexahistidine tag (Zika virus, UniProt A0A024B7W1 104-694)
T1 construct: also called ZIKV (prM80E)-mmH; ZIKV-mmH
method.notes: SPR, mAb captured, 25C
Notebook: values listed as pKd are -log10 of the concentration (mol/L).

Reference set, count: 5
binder="H4H25633P (antibody, V domains shown) VH: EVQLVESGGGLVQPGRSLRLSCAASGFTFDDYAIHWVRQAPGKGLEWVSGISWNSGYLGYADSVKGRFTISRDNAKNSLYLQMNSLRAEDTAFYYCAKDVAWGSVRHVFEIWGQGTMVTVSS VL: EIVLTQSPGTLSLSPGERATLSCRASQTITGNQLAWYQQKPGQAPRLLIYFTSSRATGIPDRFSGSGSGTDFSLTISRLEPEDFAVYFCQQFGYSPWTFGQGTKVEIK" property_measured=pKd recorded_value=8.71
binder="H4H25710N (antibody, V domains shown) VH: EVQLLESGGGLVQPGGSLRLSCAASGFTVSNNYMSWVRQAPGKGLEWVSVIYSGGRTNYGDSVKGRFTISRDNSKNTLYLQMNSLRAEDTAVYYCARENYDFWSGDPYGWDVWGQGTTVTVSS VL: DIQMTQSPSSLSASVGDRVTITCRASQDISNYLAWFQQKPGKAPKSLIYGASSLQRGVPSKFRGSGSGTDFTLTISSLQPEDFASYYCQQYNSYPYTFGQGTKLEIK" property_measured=pKd recorded_value=8.16
binder="H4H25641P (antibody, V domains shown) VH: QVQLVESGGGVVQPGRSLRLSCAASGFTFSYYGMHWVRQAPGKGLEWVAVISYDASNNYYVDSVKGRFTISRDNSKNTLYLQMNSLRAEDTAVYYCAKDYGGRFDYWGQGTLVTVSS VL: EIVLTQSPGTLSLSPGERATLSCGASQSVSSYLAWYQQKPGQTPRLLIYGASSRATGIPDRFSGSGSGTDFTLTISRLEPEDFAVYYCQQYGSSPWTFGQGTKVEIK" property_measured=pKd recorded_value=8.06
binder="H4H25592P (antibody, V domains shown) VH: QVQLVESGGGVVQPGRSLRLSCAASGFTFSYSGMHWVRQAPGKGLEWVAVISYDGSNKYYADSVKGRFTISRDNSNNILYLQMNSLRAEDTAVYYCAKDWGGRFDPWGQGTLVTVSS VL: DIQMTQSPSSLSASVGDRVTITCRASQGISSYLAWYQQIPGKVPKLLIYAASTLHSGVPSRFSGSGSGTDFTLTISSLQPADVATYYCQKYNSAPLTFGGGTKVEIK" property_measured=pKd recorded_value=9.30
binder="H4H25617P (antibody, V domains shown) VH: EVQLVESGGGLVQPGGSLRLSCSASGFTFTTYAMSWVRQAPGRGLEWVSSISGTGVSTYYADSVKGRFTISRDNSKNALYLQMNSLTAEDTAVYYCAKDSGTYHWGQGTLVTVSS VL: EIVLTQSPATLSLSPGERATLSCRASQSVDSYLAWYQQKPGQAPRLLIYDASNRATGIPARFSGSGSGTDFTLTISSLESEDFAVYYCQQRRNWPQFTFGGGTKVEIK" property_measured=pKd recorded_value=8.10

Requested field: pKd. Item: H4H25566P (antibody, V domains shown) VH: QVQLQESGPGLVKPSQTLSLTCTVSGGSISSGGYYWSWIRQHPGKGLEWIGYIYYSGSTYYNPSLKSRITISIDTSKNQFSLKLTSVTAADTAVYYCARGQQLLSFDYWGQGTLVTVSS VL: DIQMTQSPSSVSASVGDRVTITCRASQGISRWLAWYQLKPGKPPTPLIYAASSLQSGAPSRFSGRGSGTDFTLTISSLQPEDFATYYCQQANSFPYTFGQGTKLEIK
7.56
